Recorded values, source PubChem BioAssay (NCI).

system: OVCAR-5 ovarian; experiment: NCI tumour cell line growth inhibition, 48 h
Result type: TGI

1) N#Cc1c(-c2ccc([N+](=O)[O-])cc2)c2c([nH]c1=O)-c1ccccc1CCC2 : > 100 µM
2) NC(=O)c1cn(C2CC(O)C(CO)O2)c2ncnc(N)c12 (stereo not given) : > 71.6 µM
3) COc1cc(CSc2nc3ccc(Cl)cc3c(=O)n2Cc2ccccc2)cc(OC)c1OC : > 100 µM
4) CCOC(=O)c1ccc(N2NC(=O)/C(=C/c3ccc([N+](=O)[O-])o3)C2=O)cc1 : 40.7 µM
5) COc1ccc2cc3c4cc(OC)c(OC)cc4ccn3c2c1 : > 100 µM

###

test system: SK-OV-3 ovarian; assay: NCI tumour cell line growth inhibition, 48 h; in the data active = GI50 below about 0.43 µM; inactive = the rest
Possible outcomes: true = active, false = inactive

1. Nc1nc(Sc2ccc([N+](=O)[O-])c3nonc23)c2ncn(C3OC(CO)C(O)C3O)c2n1 (stereo not drawn) : false
2. COc1ccc(Sc2[nH]c(C=O)c3ccccc23)cc1 : false
3. c1cc(OCCN2CCCC2)ccc1CNc1ccc2nc(CCC3CCCCC3)[nH]c2c1 : false
4. CC(C)CCN(CCC(C)C)CC(=O)Nc1ccc(S(=O)(=O)c2ccc(NC(=O)CN(CCC(C)C)CCC(C)C)cc2)cc1 : false
5. COc1ccc(Nc2ncc(I)c(NCCCNC(=O)C3CCC3)n2)cc1 : false
6. CCCCN(CCCC)P(=O)(Oc1ccccc1)Oc1ccccc1 : false
7. CCOC(=O)c1c(NN2CCN(CC(F)(F)F)CC2)oc(/C=C2\C=Nc3ncccc32)c1O : false
8. O=C(Nc1ccc(Cl)c(C(F)(F)F)c1)Nc1ccc(-c2cccnc2)cc1N1CCC(CO)CC1 : false
9. Oc1nc(N2CCOCC2)sc1/C=C1\C=Nc2ccccc21 : false
10. CCOc1ccccc1/C=N\N=C(N/N=C/c1ccccc1OCC)N/N=C/c1ccccc1OCC : false
11. CC(=O)O[C@@H]1c2c(c3c(=O)c4cccc(O)c4c(=O)c=3c2=[N+]=[N-])[C@H](OC(C)=O)[C@@H](OC(C)=O)[C@]1(C)O : false
12. O=C1CN=C(c2ccc[nH]2)c2cc(Cl)ccc2N1 : false
13. CCCCCCOC(=O)CC1=C(C)/C(=C/c2[nH]c(-c3ccc[nH]3)cc2OC)N=C1C : true

###

system: UACC-257 melanoma; assay: NCI tumour cell line growth inhibition, 48 h
Overview of recorded TGI for various compounds
Result type: TGI

1) CCOc1ccccc1/C=N\N=C(N/N=C/c1ccccc1OCC)N/N=C/c1ccccc1OCC : > 100 µM
2) COc1cc2c3c(n(CCCN=[N+]=[N-])c(=O)c2cc1OC)-c1ccc([N+](=O)[O-])cc1C3=O : > 100 µM
3) COc1ccc(C(=O)/C=C/c2cc(-c3ccc(OC)c(OC)c3)n[nH]2)cc1OC : 5.02 µM
4) Cc1nc2ccccc2c(=O)n1/N=C(\N=Nc1ccccc1)c1ccccc1Cl : > 100 µM

###

test system: 786-0 renal; test: NCI tumour cell line growth inhibition, 48 h
Overview of recorded TGI for various compounds
Result type: TGI

1. O=C(Nc1ccc(I)cc1F)c1cc(Br)ccc1O : 5.5 µM
2. CC1(C)C(=O)/C=C\C(=O)C(C)(C)C2=CC=C(O2)C(C)(C)C(=O)C(Br)C(Br)C(=O)C(C)(C)C2=CC=C1O2 (centres undefined) : > 100 µM
3. Cc1ccc(C(=O)NC2CCCCC2)cc1N=NN(C)C : > 100 µM
4. CCOC(=O)Cc1csc(NC(=O)C(OC(=O)c2ccc(Cl)cc2)c2ccccc2)n1 (centres undefined) : > 100 µM
5. CC(C)N(C(=O)C12C3C4C5C3C1(C(=O)O)C5C42)C(C)C (centres undefined) : > 100 µM
6. CCOc1ccc(N(CC(=O)N2CC(=O)Nc3cc(C)c(C)cc32)C(C)=O)cc1 : > 100 µM
7. O=C(O)c1cc2ccccc2c(N=Nc2ccc(S(=O)(=O)Nc3ccccn3)cc2)c1O : > 100 µM
8. Oc1nc(N2CCOCC2)sc1/C=C1\C=Nc2ccccc21 : > 100 µM
9. CN1CCc2ccccc2C1Cc1ccccc1NC(=O)c1sc2ccccc2c1Cl (centres undefined) : > 100 µM
10. CCCCCCCCCCCCCCCCc1c(C(=O)OC)nc(NC#N)[nH]c1=O : > 25 µM
11. COc1ccc(C2c3ccc4ccccc4c3Oc3ncn(CCCn4ccnc4)c(=N)c32)cc1OC (centres undefined) : 11 µM
12. O=C(NCCCCCCCCNC(=O)Nc1cccc2ccccc12)Nc1cccc2ccccc12 : 24.9 µM
13. COc1cc2c3c(n(CCCN=[N+]=[N-])c(=O)c2cc1OC)-c1ccc([N+](=O)[O-])cc1C3=O : > 100 µM
14. CC(C)(C)c1cc(C[P+](c2ccccc2)(c2ccccc2)c2ccccc2)cc(C(C)(C)C)c1O : 9.73 µM
